The measurements presented in this section are drawn from ChEMBL document CHEMBL1759933.

Ratio IC50 overview
species on record: Homo sapiens; test: Selectivity index, ratio of IC50 for human recombinant MAO-A to IC50 for human recombinant MAO-B

Recorded results for 5 compounds are shown here.
structure as smiles | Ratio IC50
COc1ccc2cc(-c3c[nH]c4ccccc34)c(=O)oc2c1 | > 210
COc1ccc2cc(-c3cccs3)c(=O)oc2c1 | > 380
COc1ccc2cc(-c3ccsc3)c(=O)oc2c1 | > 75
COc1ccc2oc(=O)c(-c3cccs3)cc2c1 | > 158
O=c1oc2ccccc2cc1-c1ccsc1 | > 7.5

Which Ratio IC50 reading was recorded for the compound O=c1oc2ccccc2cc1-c1cccs1 ? > 15

Find the recorded Ratio IC50 belonging to COc1ccc2oc(=O)c(-c3ccsc3)cc2c1 and report it. > 428

Which Ratio IC50 value belongs to O=c1oc2ccccc2cc1-c1c[nH]c2ccccc12 ? > 52

---

Biological target: UniProt:P27338
Sequence (P27338 whole entry): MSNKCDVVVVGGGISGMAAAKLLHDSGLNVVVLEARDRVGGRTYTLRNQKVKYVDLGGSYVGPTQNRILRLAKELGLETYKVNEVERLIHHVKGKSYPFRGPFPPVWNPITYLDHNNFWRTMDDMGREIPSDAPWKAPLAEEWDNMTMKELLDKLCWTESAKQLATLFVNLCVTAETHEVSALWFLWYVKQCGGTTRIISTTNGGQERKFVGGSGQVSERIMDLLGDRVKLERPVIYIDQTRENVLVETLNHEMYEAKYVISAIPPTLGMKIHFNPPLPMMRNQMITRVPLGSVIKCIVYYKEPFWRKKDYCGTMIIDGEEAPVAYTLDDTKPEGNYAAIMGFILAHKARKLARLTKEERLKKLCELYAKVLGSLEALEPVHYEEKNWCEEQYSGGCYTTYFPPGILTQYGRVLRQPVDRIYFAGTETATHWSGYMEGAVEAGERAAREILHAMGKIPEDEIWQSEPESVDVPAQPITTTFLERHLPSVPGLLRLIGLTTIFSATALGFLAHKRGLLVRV
Experiment: Inhibition of human recombinant MAO-B expressed in BTI-TN-5B1-4 cells assessed as H2O2 production using para-tyramine substrate by fluorimetric method
pIC50: −log10 of the molar value.
measured property: pIC50

Some solved cases for reference:
structure as smiles | system tested | measured property | numeric value
COc1ccc2cc(-c3ccsc3)c(=O)oc2c1 | UniProt:P27338 | pIC50 | 7.25
O=c1oc2ccccc2cc1-c1cccs1 | UniProt:P27338 | pIC50 | 5.20
COc1ccc2cc(-c3cccs3)c(=O)oc2c1 | UniProt:P27338 | pIC50 | 6.58

1. COc1ccc2oc(=O)c(-c3cccs3)cc2c1
2. COc1ccc2oc(=O)c(-c3ccsc3)cc2c1
3. O=c1oc2ccccc2cc1-c1c[nH]c2ccccc12
4. O=c1oc2ccccc2cc1-c1ccsc1
5. COc1ccc2cc(-c3c[nH]c4ccccc34)c(=O)oc2c1
Arrange these 5 compounds in increasing order of pIC50. Returns: the labels listed in the requested order. 4, 3, 1, 2, 5

---

target: Amine oxidase [flavin-containing] A (Homo sapiens); assay: Inhibition of human recombinant MAO-A expressed in BTI-TN-5B1-4 cells assessed as H2O2 production using para-tyramine substrate by fluorimetric method
Sequence (P21397 whole entry): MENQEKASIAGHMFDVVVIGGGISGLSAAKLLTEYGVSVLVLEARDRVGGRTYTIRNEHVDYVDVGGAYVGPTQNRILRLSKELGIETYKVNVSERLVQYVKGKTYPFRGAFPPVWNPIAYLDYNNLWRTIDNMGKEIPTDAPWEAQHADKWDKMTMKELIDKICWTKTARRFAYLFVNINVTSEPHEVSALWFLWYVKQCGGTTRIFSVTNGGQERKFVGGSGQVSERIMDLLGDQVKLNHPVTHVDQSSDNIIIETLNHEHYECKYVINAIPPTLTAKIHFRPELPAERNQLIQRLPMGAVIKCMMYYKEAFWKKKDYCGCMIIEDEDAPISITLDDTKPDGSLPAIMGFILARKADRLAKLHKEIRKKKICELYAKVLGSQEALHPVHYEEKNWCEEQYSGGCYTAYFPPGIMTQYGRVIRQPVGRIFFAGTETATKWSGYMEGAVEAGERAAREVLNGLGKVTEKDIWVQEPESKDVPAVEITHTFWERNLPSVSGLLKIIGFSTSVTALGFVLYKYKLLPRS
measured property: IC50 (µM)

I. COc1ccc2cc(-c3c[nH]c4ccccc34)c(=O)oc2c1
II. COc1ccc2cc(-c3ccsc3)c(=O)oc2c1
Of the two listed items, which has the higher IC50? First: I Second: II Field: selected label. Fill in the label of the entry you choose. I
(I: 9.67 µM, II: 4.16 µM)
